- Tested on: Staphylococcus aureus
- TEST_PROTOCOL: Antibacterial activity against methicillin-resistant Staphylococcus aureus 43300 after 18 to 24 hrs by CLSI-based broth microdilution method
- Assay type: functional
- STATED_CONDITIONS: time hrs 18-24
Where a SMILES comes first, the peptide text is derived from it.
Please respond with reported MIC for every item in the list.

Below, 2 compounds whose answers are already recorded.
CC[C@H](C)[C@H](N)C(=O)N[C@@H](CS)C(=O)N[C@@H](CCCNC(=N)N)C(=O)N[C@@H](CCCCN)C(=O)N1CCC[C@H]1C(=O)N[C@H](C(=O)N[C@H](C(=O)N[C@@H](CS)C(=O)N[C@@H](CCCNC(=N)N)C(=O)N[C@@H](CCCCN)C(=O)N1CCC[C@H]1C(=O)N[C@H](C(N)=O)[C@@H](C)CC)[C@@H](C)CC)[C@@H](C)CC (H-ICRKPIICRKPI-NH2) = > 64 µM
CC(C)[C@H](N)C(=O)N[C@@H](CS)C(=O)N[C@@H](CCCNC(=N)N)C(=O)N[C@@H](CCCCN)C(=O)N1CCC[C@H]1C(=O)N[C@H](C(=O)N[C@H](C(=O)N[C@@H](CS)C(=O)N[C@@H](CCCNC(=N)N)C(=O)N[C@@H](CCCCN)C(=O)N1CCC[C@H]1C(=O)N[C@H](C(=O)N[C@H](C(=O)N[C@@H](CS)C(=O)N[C@@H](CCCNC(=N)N)C(=O)N[C@@H](CCCCN)C(=O)N1CCC[C@H]1C(=O)N[C@H](C(N)=O)C(C)C)C(C)C)C(C)C)C(C)C)C(C)C (H-VCRKPVVCRKPVVCRKPV-NH2) = > 64 µM

--- query ---
Query: Let me know recorded MIC for CC[C@H](C)[C@H](N)C(=O)N[C@@H](CS)C(=O)N[C@@H](CCCNC(=N)N)C(=O)N[C@@H](CCCCN)C(=O)N1CCC[C@H]1C(=O)N[C@H](C(=O)N[C@H](C(=O)N[C@@H](CS)C(=O)N[C@@H](CCCNC(=N)N)C(=O)N[C@@H](CCCCN)C(=O)N1CCC[C@H]1C(=O)N[C@H](C(=O)N[C@H](C(=O)N[C@@H](CS)C(=O)N[C@@H](CCCNC(=N)N)C(=O)N[C@@H](CCCCN)C(=O)N1CCC[C@H]1C(=O)N[C@H](C(N)=O)[C@@H](C)CC)[C@@H](C)CC)[C@@H](C)CC)[C@@H](C)CC)[C@@H](C)CC (H-ICRKPIICRKPIICRKPI-NH2) , thanks.
Response: > 64 µM
